- System: MS2 coat protein
- Test Protocol: apparent KD of MS2 coat protein; designed switch direction (-1 OFF switch, 1 ON switch): 1; higher = weaker reporter binding
- Test Conditions: Eterna round: R95; input ligand: FMN 200 uM
Metric Name: apparent KD of MS2 coat protein

CGACGCUGUCGAGAGGAUAUGCGGUGAUGGACAUGAGGAUCACCCAUGUUAGCGAUAGCAUUACGGUAGAAGGCUCUACAGCUGU [Soteed Omei mod 5] (puzzle: Same State 2); 20.4 nM
UGUUAACAUGAGGAUCACCCAUGUCAAAUGAAGCGAGGAUAUGGAAAGUAAUAAGAUGAACUAGAAGGUGUAGAUG [Altered State 1-21 - Jieux - Same State 1] (puzzle: Same State 1); 40.5 nM
ACAGCGAAACAUGAGGAUCACCCAUGUAAAGAAUAGGUGAAUUGUUGCUCGUCUUGAAGAGAAGAGAAGAAGGAGAG [Victory 1] (puzzle: Sensor for hsa-mir-208a version 2); 192 nM

Problem: Which apparent KD of MS2 coat protein reading was recorded for the sequence AGUCCAGCCUGAGCUGGACAAAAGCAUGUACAUGAGGAUCACCCAUGUUCAUGUACAAGCUUUUUGUUCGUCUUAAA [Zipper 52 - 9] (puzzle: Sensor for hsa-mir-208a) ?
Result: 179 nM
